experiment: Solubility of compound in pH 3 aqueous solution after 12 hrs by HPLC analysis; assay type: physicochemical
Overview of recorded solubility at 12 h for various compounds
Please give a number only; it is taken to be in µM.

>>> print(df.to_string())
                                   compound  unit_abbreviation  result
0  CC(=O)OC1=C(c2cccc3ncccc23)Oc2cc3ccccc3cc2-n2cccc21                 µM     210

## Task Entry "CC(=O)OC1=C(c2cccc3ccccc23)Oc2cc3ccccc3cc2-n2cccc21" : reported solubility at 12 h = ?
## Result 29.4

###

system: SCC-4; test: Cytotoxicity against human SCC4 cells after 48 hrs by MTT assay; type: functional, cell-based; conditions: SCC-4, 48 h
metric: IC50 (nM)
Please give a number only; it is taken to be in nM.

>>> df
                                   compound    tgt  result
0  CC(=O)OC1=C(c2cccc3ncccc23)Oc2cc3ccccc3cc2-n2cccc21  SCC-4     222

## Task Entry "CC(=O)OC1=C(c2ccccc2-c2ccccc2)Oc2ccccc2-n2cccc21" : reported IC50 = ?
## Result 9370

## Task Entry "CC(=O)OC1=C(c2cccc3ccccc23)Oc2cc3ccccc3cc2-n2cccc21" : reported IC50 = ?
## Result 160

###

test system: NIH3T3; assay: Cytotoxicity against mouse NIH/3T3 cells after 48 hrs by MTT assay; type: cell-based; conditions: NIH3T3, 48 h
Overview of recorded pIC50 for various compounds
Lab note: report pIC50 as minus log10 of the concentration in molar units, number only.

Worked cases, answers included:
compound	result
CC(=O)OC1=C(c2cccc3cnccc23)Oc2cc3ccccc3cc2-n2cccc21	6.43
CC(=O)O[C@H]1C(=O)[C@@]2(C)[C@H]([C@H](OC(=O)c3ccccc3)[C@]3(O)C[C@H](OC(=O)[C@H](O)[C@@H](NC(=O)c4ccccc4)c4ccccc4)C(C)=C1C3(C)C)[C@]1(OC(C)=O)CO[C@@H]1C[C@@H]2O	7.60
COc1cc2c(c(OC)c1OC)-c1ccc(OC)c(=O)cc1[C@@H](NC(C)=O)CC2	7.60

## Task Entry "CC(=O)OC1=C(c2ccc3c(c2)OCO3)Oc2cc3ccccc3cc2-n2cccc21" : reported pIC50 = ?
## Result 5.56

## Task Entry "CC(=O)OC1=C(c2cccc3ncccc23)Oc2cc3ccccc3cc2-n2cccc21" : reported pIC50 = ?
## Result 7.38

###

experiment: Ratio of IC50 for mouse NIH/3T3 cells harboring MDR G185 to IC50 for mouse NIH/3T3 cells
Overview of recorded Ratio IC50 for various compounds
Lab note: jot the number down without any unit.

Worked cases, answers included:
compound	Ratio IC50
CCN(CC)CCCC(C)NC(=O)OC1=C(c2cccc3cccnc23)Oc2cc3ccccc3cc2-n2cccc21 (stereo unspecified)	1.08
CC(=O)O[C@H]1C(=O)[C@@]2(C)[C@H]([C@H](OC(=O)c3ccccc3)[C@]3(O)C[C@H](OC(=O)[C@H](O)[C@@H](NC(=O)c4ccccc4)c4ccccc4)C(C)=C1C3(C)C)[C@]1(OC(C)=O)CO[C@@H]1C[C@@H]2O	195
CC(=O)OC1=C(c2cccc3ncccc23)Oc2cc3ccccc3cc2-n2cccc21	2
CC(=O)OC1=C(c2cccc3cnccc23)Oc2cc3ccccc3cc2-n2cccc21	2.33
CC[C@]1(O)C[C@@H]2CN(CCc3c([nH]c4ccccc34)[C@@](C(=O)OC)(c3cc4c(cc3OC)N(C)[C@H]3[C@@](O)(C(=O)OC)[C@H](OC(C)=O)[C@]5(CC)C=CCN6CC[C@]43[C@@H]65)C2)C1	70.4

## Task Entry "CC(=O)OC1=C(c2cccc3cccnc23)Oc2cc3ccccc3cc2-n2cccc21" : reported Ratio IC50 = ?
## Result 2
